Source of measurements: patent US6635621B1

molecular target: cathepsin S (Homo sapiens); test: In vitro assay for inhibition of cathepsin S; assay type: biochemical; settings: r cathepsin S, substrate N-CBZ-Val-Val-Arg-AMC, pH 6.5, 10 min incubation at room temperature
Sequence (P25774 115-331, species assumed): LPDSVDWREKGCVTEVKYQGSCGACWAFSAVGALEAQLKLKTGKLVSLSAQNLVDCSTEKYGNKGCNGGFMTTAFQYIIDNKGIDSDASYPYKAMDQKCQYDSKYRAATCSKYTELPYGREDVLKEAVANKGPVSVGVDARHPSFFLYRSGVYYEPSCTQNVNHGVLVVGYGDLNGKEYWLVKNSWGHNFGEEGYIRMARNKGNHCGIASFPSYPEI
quantity: IC50 (µM)

Past entries and their recorded results:
[
  {
    "compound": "NC=C(NC(=O)[C@H](CC1CCCCC1)NC(=O)OCc1ccccc1)C(N)=O [Example 2]",
    "IC50 / µM": 0.026
  },
  {
    "compound": "CC(=O)N/C=C(/NC(=O)[C@H](CC(C)C)NC(=O)OCc1ccccc1)C(N)=O [Example 10a]",
    "IC50 / µM": 0.013
  },
  {
    "compound": "CC(C)C[C@H](NC(=O)OCc1ccccc1)C(=O)NC(=CNCCO)C(N)=O [Example 7]",
    "IC50 / µM": 0.18
  }
]

a = CC(=O)N/C=C(/NC(=O)[C@H](CC1CCCCC1)NC(=O)OCc1ccccc1)C(N)=O [Example 19a]
b = NC(=O)C(NC(=O)[C@H](Cc1ccccc1)NC(=O)CCc1ccccc1)C(O)O (stereo partly shown) [Example 14]
Please choose the item with the lower IC50 value from this pair: a and b Answer with the label corresponding to your selection.
b

a = CC(C)C[C@H](NC(=O)OCc1ccccc1)C(=O)N/C(=C\N1CCC(NC(=O)OC(C)(C)C)C1)C(N)=O (stereo partly shown) [Example 18]
b = COC(=O)CN/C=C(/NC(=O)[C@H](Cc1ccccc1)NC(=O)OCc1ccccc1)C(N)=O [Example 31a]
c = NC=C(NC(=O)[C@H](Cc1ccccc1)NC(=O)CCc1ccccc1)C(N)=O [Example 4]
d = CC(C)C[C@H](NC(=O)OCc1ccccc1)C(=O)N/C(=C/O)C(N)=O [Example 15]
e = COC(=O)CN/C=C(\NC(=O)[C@H](Cc1ccccc1)NC(=O)OCc1ccccc1)C(N)=O [Example 31b]
Sort low-to-high on IC50, please. As an answer, provide the labels arranged in the order called for.
c, a, d, e, b
(c: 0.0087 µM, a: 0.039 µM, d: 0.075 µM, e: 0.43 µM, b: 0.7 µM)

P = CC(C)C[C@H](NC(=O)OCc1ccccc1)C(=O)NC(=CN1CCOCC1)C(N)=O [Example 6]
Q = CC(C)C[C@H](NC(=O)OCc1ccccc1)C(=O)NC(=CNCc1ccccc1)C(=O)NCc1ccccc1 [Example 16]
Out of P and Q , name the one with the higher IC50. Answer with the label corresponding to your selection.
P
(P: 0.05 µM, Q: 0.026 µM)

1 = CC(C)C[C@H](NC(=O)OCc1ccccc1)C(=O)N/C(=C\N1CCCCC1)C(N)=O [Example 9]
2 = NC=C(NC(=O)[C@H](Cc1ccccc1)NC(=O)OCc1ccccc1)C(N)=O [Example 3]
3 = COC(=O)[C@H](Cc1ccccc1)N/C=C(\NC(=O)[C@H](Cc1ccccc1)NC(=O)OCc1ccccc1)C(N)=O [Example 30b]
Sort by IC50, descending. As an answer, provide the labels arranged in the order called for.
3, 2, 1

* * *

The following compounds are listed with their measured melting point values.

Past entries and their recorded results:
[
  {
    "compound": "NC(=O)C(NC(=O)[C@H](Cc1ccccc1)NC(=O)CCc1ccccc1)C(O)O (stereo partly shown) [Example 14]",
    "quantity": "melting point",
    "assayResult": "105 to 110 °C"
  },
  {
    "compound": "NC=C(NC(=O)[C@H](Cc1ccccc1)NC(=O)OCc1ccccc1)C(N)=O [Example 3]",
    "quantity": "melting point",
    "assayResult": "127 to 135 °C"
  },
  {
    "compound": "CC(C)C[C@H](NC(=O)OCc1ccccc1)C(=O)NC(=CNc1ccccc1)C(N)=O [Example 8]",
    "quantity": "melting point",
    "assayResult": "199 to 200 °C"
  }
]

Kindly review the next compound as well.
Give a short answer stating reported melting point for CC(C)C[C@H](NC(=O)OCc1ccccc1)C(=O)NC(=CN1CCOCC1)C(N)=O [Example 6] .
120 to 130 °C

* * *

molecular target: rat cathepsin B (Rattus norvegicus, UniProt P00787); assay: In vitro assay for inhibition of cathepsin B; type: biochemical; conditions: r rat cathepsin B, substrate N-CBZ-Phe-Arg-AMC, pH 5.1, 10 min incubation at room temperature
Sequence (P00787 80-333): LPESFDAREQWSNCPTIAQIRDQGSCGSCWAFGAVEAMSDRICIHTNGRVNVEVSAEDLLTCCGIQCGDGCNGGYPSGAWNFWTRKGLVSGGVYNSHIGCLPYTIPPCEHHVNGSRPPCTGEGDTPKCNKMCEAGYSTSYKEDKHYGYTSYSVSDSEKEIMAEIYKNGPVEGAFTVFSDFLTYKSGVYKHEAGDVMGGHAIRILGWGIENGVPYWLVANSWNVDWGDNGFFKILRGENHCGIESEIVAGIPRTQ
quantity: IC50 (µM)

Past entries and their recorded results:
[
  {
    "compound": "CC(C)C[C@H](NC(=O)OCc1ccccc1)C(=O)NC(=CNCc1ccccc1)C(=O)NCc1ccccc1",
    "unitText": "µM",
    "IC50": 0.15
  },
  {
    "compound": "CC(C)C[C@H](NC(=O)OCc1ccccc1)C(=O)N/C(=C\\N1CCCCC1)C(N)=O",
    "unitText": "µM",
    "IC50": 0.89
  }
]

1 = COC(=O)CN/C=C(/NC(=O)[C@H](Cc1ccccc1)NC(=O)OCc1ccccc1)C(N)=O [Example 31a]
2 = CCOC(=O)/C(=C\N1CCOCC1)NC(=O)[C@H](CC1CCCCC1)NC(=O)OCc1ccccc1
Out of 1 and 2 , name the one with the higher IC50. Answer with the label corresponding to your selection.
1

* * *

molecular target: cathepsin K (Homo sapiens, UniProt P43235); assay: In vitro assay for inhibition of cathepsin K; format: biochemical; details: r cathepsin K, substrate N-CBZ-Phe-Arg-AMC, pH 5.5, 10 min incubation at room temperature
Sequence (P43235 115-329, species assumed): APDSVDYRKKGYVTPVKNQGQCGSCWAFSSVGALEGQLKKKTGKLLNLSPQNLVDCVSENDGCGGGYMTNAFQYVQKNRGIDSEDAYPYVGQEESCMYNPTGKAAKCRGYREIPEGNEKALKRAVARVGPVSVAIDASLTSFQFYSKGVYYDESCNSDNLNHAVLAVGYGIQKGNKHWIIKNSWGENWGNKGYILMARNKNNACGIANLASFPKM
quantity: IC50 (µM)

Past entries and their recorded results:
[
  {
    "compound": "CC(C)C[C@H](NC(=O)OCc1ccccc1)C(=O)NC(C(N)=O)C(O)O (stereo partly shown)",
    "system": "cathepsin K (Homo sapiens, UniProt P43235)",
    "unitText": "µM",
    "IC50": 0.014
  },
  {
    "compound": "CCOC(=O)/C(=C\\N1CCOCC1)NC(=O)[C@H](CC(C)C)NC(=O)OCc1ccccc1",
    "system": "cathepsin K (Homo sapiens, UniProt P43235)",
    "unitText": "µM",
    "IC50": 0.011
  }
]

1 = CC(C)C[C@H](NC(=O)OCc1ccccc1)C(=O)NC(=CN)C(N)=O
2 = CC(C)C[C@H](NC(=O)OCc1ccccc1)C(=O)N/C(=C/N1CCOCC1)C(=O)c1ccccc1
3 = CC(C)C[C@H](NC(=O)OCc1ccccc1)C(=O)N/C(=C/N1CCOCC1)C(=O)OC(C)(C)C
Sort low-to-high on IC50, please. As an answer, provide the labels arranged in the order called for.
3, 1, 2

P = CC(C)C[C@H](NC(=O)OCc1ccccc1)C(=O)NC(=CNCCO)C(N)=O
Q = CC(C)C[C@H](NC(=O)OCc1ccccc1)C(=O)N/C(=C\N1CCN(C)CC1)C(N)=O
R = NC=C(NC(=O)[C@H](Cc1ccccc1)NC(=O)OCc1ccccc1)C(N)=O
Sort low-to-high on IC50, please. As an answer, provide the labels arranged in the order called for.
P, Q, R
(P: 0.012 µM, Q: 0.019 µM, R: 0.23 µM)

a = COC(=O)[C@H](Cc1ccccc1)N/C=C(/NC(=O)[C@H](Cc1ccccc1)NC(=O)OCc1ccccc1)C(N)=O [Example 30a]
b = COc1ccc(C(=O)/C(=C\N2CCOCC2)NC(=O)[C@H](CC(C)C)NC(=O)c2cc3ccccc3s2)cc1
c = O=C(CCc1ccccc1)N[C@@H](Cc1ccccc1)C(=O)N/C(=C/N1CCOCC1)C(=O)OC(c1ccccc1)c1ccccc1
d = CC(C)C[C@H](NC(=O)OCc1ccccc1)C(=O)NC(=CNCc1ccccc1)C(N)=O
Sort by IC50, descending. As an answer, provide the labels arranged in the order called for.
a, c, b, d

P = CCOC(=O)/C(=C\N1CCOCC1)NC(=O)[C@H](CC1CCCCC1)NC(=O)OCc1ccccc1
Q = CC(C)C[C@H](NC(=O)OCc1ccccc1)C(=O)N/C(=C/O)C(N)=O
Please choose the item with the lower IC50 value from this pair: P and Q Answer with the label corresponding to your selection.
Q
(Q: 0.018 µM, P: 0.37 µM)

* * *

target: cathepsin S (Homo sapiens); experiment: In vitro assay for inhibition of cathepsin S; type: biochemical; conditions: r cathepsin S, substrate N-CBZ-Val-Val-Arg-AMC, pH 6.5, 10 min incubation at room temperature
quantity: IC50 (µM)

I = CC(C)C[C@H](NC(=O)OCc1ccccc1)C(=O)N/C(=C/N1CCOCC1)C(=O)c1ccccc1 [Example 27]
II = CCOC(=O)/C(=C\N1CCOCC1)NC(=O)[C@H](Cc1ccccc1)NC(=O)OCc1ccccc1 [Example 22]
III = CC(C)C[C@H](NC(=O)OCc1ccccc1)C(=O)NC(C(N)=O)C(O)O (stereo partly shown) [Example 11]
IV = CC(C)C[C@H](NC(=O)OCc1ccccc1)C(=O)NC(=CNc1ccccc1)C(N)=O [Example 8]
Take the compounds listed above and rank them by IC50; the top slot goes to the highest value. As an answer, provide the labels arranged in the order called for.
I, IV, II, III
